B1: PhoQ; a variant is named by its letters at X, in order, P23837 (parent)
chain: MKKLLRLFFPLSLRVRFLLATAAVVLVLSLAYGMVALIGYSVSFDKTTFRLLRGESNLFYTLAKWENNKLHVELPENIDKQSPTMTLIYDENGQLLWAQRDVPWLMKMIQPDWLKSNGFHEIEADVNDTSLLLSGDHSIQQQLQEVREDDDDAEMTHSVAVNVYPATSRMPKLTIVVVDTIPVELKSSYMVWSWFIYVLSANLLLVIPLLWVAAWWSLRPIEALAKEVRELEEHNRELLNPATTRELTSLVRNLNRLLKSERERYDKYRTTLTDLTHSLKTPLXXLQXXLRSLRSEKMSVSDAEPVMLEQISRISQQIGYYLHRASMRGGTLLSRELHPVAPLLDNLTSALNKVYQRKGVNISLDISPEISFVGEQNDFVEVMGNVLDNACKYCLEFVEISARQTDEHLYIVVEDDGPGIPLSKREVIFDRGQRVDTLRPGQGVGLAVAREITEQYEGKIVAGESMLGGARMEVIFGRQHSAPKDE

Variants of: B1
Assay: enrichment ratio after two sorts for PhoP signalling (ratio (wild type AVST 3.29)); higher = more functional
Settings: with PhoP (E. coli)
Over roughly 140,000 sequences, “enrichment ratio after two sorts for PhoP signalling” has its median near 0; the highest 2% begin near 11. The list comes from a sample in which the highest values are over-represented; it also holds close analogues and randomly drawn sequences.
// reported enrichment ratio per item

KCLM ≤ 0.25

Please look up its enrichment ratio: IVFG
≤ 0.25

Please report the recorded enrichment ratio for APIR .
≤ 0.25
